pIC50: recorded values
- Measured Target: α2δ subunit derived from porcine brain tissue (Sus scrofa, UniProt A0A287BIN3)
- Construct: the α2δ subunit derived from porcine brain tissue
- Sequence (A0A287BIN3 25-1109): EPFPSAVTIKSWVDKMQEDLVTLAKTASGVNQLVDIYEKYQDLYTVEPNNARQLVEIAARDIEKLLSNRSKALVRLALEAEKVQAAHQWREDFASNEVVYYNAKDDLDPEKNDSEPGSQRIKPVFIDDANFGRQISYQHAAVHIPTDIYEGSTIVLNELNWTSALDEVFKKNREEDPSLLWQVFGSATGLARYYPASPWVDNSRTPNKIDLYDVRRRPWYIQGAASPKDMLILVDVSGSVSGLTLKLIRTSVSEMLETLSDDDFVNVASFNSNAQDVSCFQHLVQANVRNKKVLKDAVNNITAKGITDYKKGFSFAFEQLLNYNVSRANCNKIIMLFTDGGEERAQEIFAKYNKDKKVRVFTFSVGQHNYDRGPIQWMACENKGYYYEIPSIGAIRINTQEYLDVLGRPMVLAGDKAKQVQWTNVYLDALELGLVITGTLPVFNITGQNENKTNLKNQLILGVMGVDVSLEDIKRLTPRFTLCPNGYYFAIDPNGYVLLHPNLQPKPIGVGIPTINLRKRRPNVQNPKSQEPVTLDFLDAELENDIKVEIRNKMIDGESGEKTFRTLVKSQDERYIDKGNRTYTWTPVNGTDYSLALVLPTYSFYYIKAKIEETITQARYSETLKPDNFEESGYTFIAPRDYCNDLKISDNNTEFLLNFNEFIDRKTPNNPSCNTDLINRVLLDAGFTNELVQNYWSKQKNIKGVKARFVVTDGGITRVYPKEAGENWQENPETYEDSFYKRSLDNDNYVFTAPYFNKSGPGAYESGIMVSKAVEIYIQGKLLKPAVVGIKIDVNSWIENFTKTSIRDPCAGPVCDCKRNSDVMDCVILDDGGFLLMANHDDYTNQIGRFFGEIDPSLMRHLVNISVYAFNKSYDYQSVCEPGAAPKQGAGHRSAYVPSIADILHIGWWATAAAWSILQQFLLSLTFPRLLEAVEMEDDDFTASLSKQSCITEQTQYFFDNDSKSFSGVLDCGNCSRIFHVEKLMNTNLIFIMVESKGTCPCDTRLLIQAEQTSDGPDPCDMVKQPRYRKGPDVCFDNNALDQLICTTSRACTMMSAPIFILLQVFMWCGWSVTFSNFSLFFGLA
- Assay Text: radioligand binding assay using [3H]gabapentin
- Run Parameters: [3H]gabapentin binding
Where a name gives a salt, the structure may show the parent alone.
In plain terms, pIC50 is the concentration in mol/L turned into minus its base-10 logarithm.

{"Molecule": "O=C(O)[C@@H]1C[C@H](OCc2ccc(Cl)cc2)CN1 [Example 2]", "pIC50": 6.92}
{"Molecule": "O=C(O)[C@@H]1C[C@H](Oc2cccc(Cl)c2)CN1 [Example 8]", "pIC50": 8.30}
{"Molecule": "O=C(O)[C@@H]1C[C@H](Sc2ccccc2)CN1 [Example 4]", "pIC50": 7.14}
{"Molecule": "O=C(O)[C@@H]1C[C@H](Cc2cc(F)ccc2F)CN1 [Example 12, mono hydrochloride salt]", "pIC50": 8.15}
{"Molecule": "O=C(O)[C@@H]1C[C@H](Oc2ccc3ccncc3c2)CN1 [Example 7]", "pIC50": 6.68}
{"Molecule": "COc1cccc(C[C@@H]2CN[C@H](C(=O)O)C2)c1 [Example 14, mono hydrochloride salt]", "pIC50": 8.05}
{"Molecule": "O=C(O)[C@@H]1C[C@H](Cc2cccc(F)c2F)CN1 [Example 11, mono-hydrochloride salt]", "pIC50": 7.82}

pIC50 measured on O=C(O)[C@@H]1C[C@H](Cc2cccc(F)c2)CN1 [Example 10, mono hydrochloride salt] = 7.96
